# Test system: amino acid racemase and PAM
# testDetails: Coupled enzyme reaction (racemase + PAM, DKR conditions)
# Type: biochemical
# runConditions: 0.4 mM racemic α-arylalanine, 200 μg/mL racemase, 100 μg/mL PAM, 20 h
# Protocol: Coupled Enzyme Reaction. The coupled enzyme reaction mixture incubated at 31° C. contained partially purified amino acid racemase (200 μg) and PAM (100 μg) in 1 mL of 50 mM phosphate buffer (pH 8.0) containing 5% (v/v) glycerol. […] After 20 h, the reactions were terminated by basification to pH 10-12 (with 0.5 N NaOH solution) and the amino acids were derivatized for quantification by chiral GC/EI-MS analysis as described previously.
Answer each item with its documented increase in conversion to (R)-β-arylalanine under DKR conditions compared to PAM alone.
Answers are plain numbers, in %.

// known answers, use as guide
Cc1ccc(CC(N)C(=O)O)cc1 (racemic) :: 12
NC(Cc1ccc(F)cc1)C(=O)O (racemic) :: 16
NC(Cc1cccc(F)c1)C(=O)O (racemic) :: 14

// batch mode: one increase in conversion to (R)-β-arylalanine under DKR conditions compared to PAM alone value per listed entry
1. N[C@@H](Cc1ccccc1)C(=O)O (racemic)
2. NC(Cc1cccs1)C(=O)O (racemic) [2′-thienyl-α-arylalanine, (R,S)-3-(2′-thienyl)alanine]

19
12
